Where do the numbers come from? From paper PMC11040352.

- assay.details: Ex vivo biodistribution in mice with MM1S tumor xenografts
- assay.context: both sexes, NSG, mouse, large intestine (with contents), 80 µCi, 30 min p.i.; MM1S xenograft mice; read-out: uptake in large intestine (with contents)
outcome.measure: tissue uptake at 0.5 h (%ID/g)
Your answer should be a plain number; it is taken to be in %ID/g.

Query string: For the compound CC[C@H](C)[C@@H]1NC(=O)[C@@H]2CCCN2C(=O)[C@H](Cc2ccccc2)NC(=O)[C@H](CC(=O)O)NC(=O)[C@H](C)NC(=O)[C@@H]2CSCc3cc(cc(c3)CSC[C@H](NC(=O)[C@H](C)NC(=O)CCOCCOCCOCCNC(=O)CN3CCN(CC(=O)O)CCN(CC(=O)O)CC3)C(=O)N[C@@H](C(C)C)C(=O)N3CCC[C@H]3C(=O)N2)CSC[C@@H](C(N)=O)NC(=O)[C@H](Cc2ccc(O)cc2)NC(=O)[C@H](Cc2c[nH]c3ccccc23)NC1=O [[^68Ga]Ga‐AJ206, metal not drawn] , give its measured tissue uptake at 0.5 h value.
Result string: 0.75
